What MIC was measured for each of the following?
- System: M. abscessus MABS9
- protocolNotes: MIC (Table 8)
- Format: cell-based
- experimentalParameters: Mycobacteroides abscessus
Numbers only, in µg/mL.

For orientation, consider the following solved cases.
| lineNotation | MIC / µg/mL |
| --- | --- |
| NCC[C@H](O)C(=O)N[C@@H]1C[C@H](N)[C@@H](O[C@H]2O[C@H](CN)[C@@H](O)[C@H](O)[C@H]2O)[C@H](O)[C@H]1O[C@H]1O[C@H](CO)[C@@H](O)[C@H](N)[C@H]1O | 8 |
| C[C@@H](O)[C@H]1C(=O)N2C(C(=O)O)=C(SCCN=CN)C[C@H]12 | 16 |
| CO[C@@]1(NC(=O)Cc2cccs2)C(=O)N2C(C(=O)O)=C(COC(N)=O)CS[C@@H]21 | 32 |

Here is the next item to consider.
Tested on M. abscessus MABS9: CC[C@H]1OC(=O)[C@H](C)[C@@H](O[C@H]2C[C@@](C)(OC)[C@@H](O)[C@H](C)O2)[C@H](C)[C@@H](O[C@@H]2O[C@H](C)C[C@H](N(C)C)[C@H]2O)[C@](C)(OC)C[C@@H](C)C(=O)[C@H](C)[C@@H](O)[C@]1(C)O . Observed MIC: 0.25
